Property: relative binding ratio; scope: individual binders
target: T1, HLA-A*1101 (purified HLA class I molecule) (human); experiment: competition vs 125I standard peptide, purified HLA
T1 construct: Purified MHC molecule
MEASURE NAME: relative binding ratio

>>> endpoint_value("ILKETELRK [HER2/neu peptide, position 714, 9 amino acids]")
"0.0023 ratio (IC50 standard/IC50 test)"
>>> endpoint_value("ILWKDIFHK (also called Her2/neu.167) [HER2/neu peptide, position 167, 9 amino acids]")
"0.31 ratio (IC50 standard/IC50 test)"
>>> endpoint_value("HADGGKVPIK [HER2/neu peptide, position 878, 10 amino acids]")
"0.0008 ratio (IC50 standard/IC50 test)"
>>> endpoint_value("ILIKRRQQK [HER2/neu peptide, position 673, 9 amino acids]")
"0.0097 ratio (IC50 standard/IC50 test)"
